Data credit: paper PMC9482650

Target: PDZRN4_1, Q6ZMN7
Sequence (Q6ZMN7 213-318): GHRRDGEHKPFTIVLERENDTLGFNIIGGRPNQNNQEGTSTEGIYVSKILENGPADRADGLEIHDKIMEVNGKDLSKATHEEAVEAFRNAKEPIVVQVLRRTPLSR
Assay: holdup assay
Set-up: key: below the threshold = too weak to quantify, mostly under pKd 3.1 to 4
Details: plain residues with an end cap or a label only (N-terminal biotin on a linker: ahx)
recorded metric: pKd

Answered examples (5):
binder: ESLLLGPSNF [SHROOM4, Q9ULL8]
pKd: below the threshold

binder: PSASCAVTAA [PDLIM4, P50479;P50479-2]
pKd: below the threshold

binder: NRKREIFSNF [NHERF2, Q15599]
pKd: below the threshold

binder: LSDPSVSTVV [GRIN1, Q05586;Q05586-2]
pKd: below the threshold

binder: RAVEEEESRF [PSCDBP, O60759]
pKd: below the threshold

Please state, for each entry, its recorded pKd.
1. RRRKRKRTYL [HPV49-L2, P36762]
2. GYDWGPATDL [TJP3, O95049]
3. TVICWPGSLV [LNX2, Q8N448]
4. HNAFLSVTTV [PDZRN4, Q6ZMN7]
5. SDSSGQEYSL [KCTD3, Q9Y597]

[3.55, "below the threshold", 4.23, 3.5, "below the threshold"]
